Documented MIC PM 10775 across a set of compounds
- Test system: Pasteurella multocida PM 10775 (080130003051, BRD field isolate)
- protocol-description: MIC, broth-microdilution (CLSI VET01-A4), strain PM 10775
- Format: cell-based
- measurement-conditions: Pasteurella multocida strain PM 10775, broth-microdilution; unit assumed

compound: Cc1ccc(CNCc2ccc(C#Cc3ccc(C(=O)N[C@H](C(=O)NO)C(C)(C)S(C)(=O)=O)cc3)cc2)cc1
result: ≤ 0.1 µg/mL

compound: CC(C)[C@H](NC(=O)c1ccc(C#Cc2ccc(CN3CCCCC3)cc2)cc1)C(=O)NO
result: ≤ 0.1 µg/mL

compound: CC(C)[C@H](NC(=O)c1ccc(C#Cc2ccc(CN3CCCC3)cc2)cc1)C(=O)NO
result: ≤ 0.1 µg/mL

Item: `CC(C)(O)[C@H](NC(=O)c1ccc(C#Cc2ccc(CNCc3ncccn3)s2)cc1)C(=O)NO` Test system: Pasteurella multocida PM 10775 (080130003051, BRD field isolate) Read-out: MIC PM 10775 Value: ? ≤ 0.1 µg/mL

Then this compound: `CON=C(C)[C@H](NC(=O)c1ccc(C#Cc2ccc(CNC3CCCC3)cc2)cc1)C(=O)NO` 1.6 µg/mL

Then this compound: `CC(C)[C@H](NC(=O)c1ccc(C#Cc2cccc(CNCC(C)(C)C)c2)cc1)C(=O)NO` 0.8 µg/mL

Then this compound: `COCCNCc1ccc(C#Cc2ccc(C(=O)N[C@H](C(=O)NO)C(C)(C)SC)cc2)cn1` 0.2 µg/mL

Then this compound: `CC(C)(O)[C@H](NC(=O)c1ccc(C#Cc2ccc(CNC3CC3)cc2)cc1)C(=O)NO` ≤ 0.1 µg/mL

Then this compound: `CC[C@H](C)[C@H](NC(=O)c1ccc(C#Cc2ccc(CNCc3ccc(OC)cc3)cc2)cc1)C(=O)NO` ≤ 0.1 µg/mL

Then this compound: `CSC(C)(C)[C@H](NC(=O)c1ccc(C#Cc2ccc(CNCC(F)(F)F)nc2)cc1)C(=O)NO` ≤ 0.1 µg/mL

Then this compound: `N#CCNCc1ccc(C#Cc2ccc(C(=O)N[C@@H](CO)C(=O)NO)cc2)cc1` ≤ 0.1 µg/mL

----------
- Tested on: Pasteurella multocida PM 10775 (080130003051, BRD field isolate)
- protocol-description: MIC, broth-microdilution (CLSI VET01-A4), strain PM 10775
- Format: cell-based
- measurement-conditions: Pasteurella multocida strain PM 10775, broth-microdilution; unit assumed
Documented MIC PM 10775 across a set of molecules

molecule: C=CCNCc1ccc(C#Cc2ccc(C(=O)N[C@H](C(=O)NO)C(C)=NOC)cc2)cc1 [Compound 379]
result: 0.4 µg/mL
--
molecule: CC[C@H](C)[C@H](NC(=O)c1ccc(C#Cc2ccc(CNCc3ccco3)cc2)cc1)C(=O)NO [Compound 181]
result: ≤ 0.1 µg/mL
--
molecule: CSC(C)(C)[C@H](NC(=O)c1ccc(C#Cc2ccc(CNCc3ccccc3)nc2)cc1)C(=O)NO [Compound 339]
result: ≤ 0.1 µg/mL
--
molecule: CC(C)[C@H](NC(=O)c1ccc(C#Cc2ccc(CNCc3ncc[nH]3)cc2)cc1)C(=O)NO [Compound 173]
result: ≤ 0.1 µg/mL
--
molecule: CC(C)([C@H](NC(=O)c1ccc(C#Cc2ccc(CNCC#N)s2)cc1)C(=O)NO)S(C)(=O)=O [Compound 318]
result: ≤ 0.1 µg/mL
--
molecule: CSC(C)(C)[C@H](NC(=O)c1ccc(C#Cc2ccc(CNCC#N)cc2)cc1)C(=O)NO [Compound 246]
result: ≤ 0.1 µg/mL

Any idea what its MIC PM 10775 is? The molecule is CC(=O)C(NC(=O)c1ccc(C#Cc2ccc(CN3CCCC3)cc2)cc1)C(=O)NO (stereo not drawn) [Compound 403] 6.3 µg/mL

Then this molecule: CON=C(C)[C@H](NC(=O)c1ccc(C#Cc2ccc(CNCc3ccccn3)cc2)cc1)C(=O)NO [Compound 390] 0.4 µg/mL

Then this molecule: CC[C@H](C)[C@H](NC(=O)c1ccc(C#Cc2ccc(CN3CCN(C)CC3)cc2)cc1)C(=O)NO [Compound 175] ≤ 0.1 µg/mL
